# intrinsic clearance (CLint) per entry
test system: Liver microsomes; experiment: Intrinsic clearance in human liver microsomes at 1 uM; type: ADME, Microsome

entrySmiles: Cc1cc(CCC#N)cc(C)c1Oc1cc(Nc2ccc(C#N)cc2)c(N)cc1C(F)(F)F
intrinsic clearance (CLint): 120 µL/min/mg

entrySmiles: CNC(=O)c1cc(N)c(Nc2ccc(C#N)cc2)cc1Oc1c(C)cc(CCC#N)cc1C
intrinsic clearance (CLint): 120 µL/min/mg

entrySmiles: Cc1cc(/C=C/C#N)cc(C)c1Oc1cc(Nc2ccc(C#N)cc2)c(N)cc1C(F)(F)F
intrinsic clearance (CLint): 150 µL/min/mg

entrySmiles: Cc1cc(CCC#N)cc(C)c1Oc1cc(Nc2ccc(C#N)cc2)c(N)cc1C(N)=O
intrinsic clearance (CLint): 160 µL/min/mg

entrySmiles: Cc1cc(CCC#N)cc(C)c1Oc1cc(Nc2ccc(C#N)cc2)c(N)cc1CO
intrinsic clearance (CLint): 330 µL/min/mg
